Measured TGI, listed per entry.
- Test system: SNB-19 CNS
- ASSAY_TEXT: NCI tumour cell line growth inhibition, 384-well format
Hi! Could you send only the number? It should be in µM, unit omitted.

Below, each entry is followed by its recorded TGI result.
>>> df
                                  structure  quantitative_readout
0               O=C(CCCCCCC(=O)Nc1ccccc1)NO                  5.21
1  C#Cc1c(F)ccc2cc(O)cc(-c3ncc4c(N5CC6CCC(C5)N6)nc(OC[C@@]56CCCN5C[C@H](F)C6)nc4c3F)c12                  22.8

Attention now turns to another entry.
May I ask what TGI has been recorded for FC(F)(F)c1ccc(Nc2nc(-c3c(C(F)(F)F)nc4ccccn34)cs2)cc1 ? 1.96
